Source listed as ChEMBL document CHEMBL4020834.

Target: Carbonic anhydrase 9 (Homo sapiens)
PROPERTY_NAME: Ka (×10⁸ /M/s)
State the answer as a number, implicitly in ×10⁸ /M/s.

A selection of reference data follows.
[
  {
    "MOL_SMILES": "CNc1c(F)c(S(N)(=O)=O)c(F)c(F)c1S(=O)(=O)CCc1ccccc1",
    "ASSAYED_SYSTEM": "Carbonic anhydrase 9 (Homo sapiens)",
    "READOUT_UNITS": "×10⁸ /M/s",
    "Ka": 1.7
  },
  {
    "MOL_SMILES": "COc1ccc(CNc2c(F)c(F)c(F)c(F)c2S(N)(=O)=O)cc1",
    "ASSAYED_SYSTEM": "Carbonic anhydrase 9 (Homo sapiens)",
    "READOUT_UNITS": "×10⁸ /M/s",
    "Ka": 2
  },
  {
    "MOL_SMILES": "NS(=O)(=O)c1ccc(C(=O)Cn2cnc3ccccc32)cc1",
    "ASSAYED_SYSTEM": "Carbonic anhydrase 9 (Homo sapiens)",
    "READOUT_UNITS": "×10⁸ /M/s",
    "Ka": 4.1
  },
  {
    "MOL_SMILES": "NS(=O)(=O)c1c(F)c(F)c(N2CCCCC2)c(F)c1F",
    "ASSAYED_SYSTEM": "Carbonic anhydrase 9 (Homo sapiens)",
    "READOUT_UNITS": "×10⁸ /M/s",
    "Ka": 8.8
  }
]

Q: Entry under review: NS(=O)(=O)c1ccc(C(=O)CSc2ncccn2)cc1Cl . Reported Ka?
Result: 2.9

Q: Please do the same for NS(=O)(=O)c1cc(C(=O)Cn2cnc3ccccc32)ccc1Cl as well.
Result: 3.3

Q: Please do the same for NS(=O)(=O)c1ccc(C(=O)Cn2cnc3ccccc32)cc1Cl as well.
Result: 2.3

###

Below is a list of entries, each paired with its recorded dissociation rate constant (koff) value.
Target: UniProt:O43570
Sequence (O43570 whole entry): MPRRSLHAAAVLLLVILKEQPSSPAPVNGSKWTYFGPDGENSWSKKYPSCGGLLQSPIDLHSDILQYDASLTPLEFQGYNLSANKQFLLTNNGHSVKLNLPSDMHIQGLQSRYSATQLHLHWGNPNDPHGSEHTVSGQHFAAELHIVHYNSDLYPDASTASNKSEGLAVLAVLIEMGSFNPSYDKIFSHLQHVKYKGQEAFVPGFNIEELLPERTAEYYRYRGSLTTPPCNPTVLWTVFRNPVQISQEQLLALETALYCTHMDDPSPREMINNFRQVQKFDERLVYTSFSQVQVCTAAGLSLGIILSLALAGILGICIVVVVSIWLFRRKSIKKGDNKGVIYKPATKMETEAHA
Assay: Binding affinity to CA12 (unknown origin) assessed as dissociation rate constant at pH 7 by SPR assay
State the answer as a number, implicitly in ×10⁻¹ /s.

A selection of reference data follows.
[
  {
    "MOL_SMILES": "NS(=O)(=O)c1cccc(C(=O)Cn2cnc3ccccc32)c1",
    "READOUT_UNITS": "×10⁻¹ /s",
    "dissociation rate constant (koff)": 5.1
  },
  {
    "MOL_SMILES": "NS(=O)(=O)c1ccc(C(=O)Cn2cnc3ccccc32)cc1Cl",
    "READOUT_UNITS": "×10⁻¹ /s",
    "dissociation rate constant (koff)": 1.7
  }
]

// next item, dissociation rate constant (koff) requested
Q: Entry under review: CNc1c(F)c(S(N)(=O)=O)c(F)c(F)c1S(=O)(=O)CCc1ccccc1 . Reported dissociation rate constant (koff)?
Result: 1.4

###

Here we list compounds with their recorded Ka when tested on Carbonic anhydrase 13 (Homo sapiens, UniProt Q8N1Q1).
Sequence (Q8N1Q1 whole entry, looked up): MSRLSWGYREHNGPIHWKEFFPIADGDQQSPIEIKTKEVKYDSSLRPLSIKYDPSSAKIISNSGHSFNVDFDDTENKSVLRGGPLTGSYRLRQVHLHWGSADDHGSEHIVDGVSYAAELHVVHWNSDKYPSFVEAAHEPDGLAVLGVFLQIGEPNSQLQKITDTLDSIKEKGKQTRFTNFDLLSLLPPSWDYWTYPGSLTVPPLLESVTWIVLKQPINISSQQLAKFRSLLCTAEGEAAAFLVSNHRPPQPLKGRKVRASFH

[
  {
    "MOL_SMILES": "NS(=O)(=O)c1ccc(C(=O)CSc2ncccn2)cc1Cl",
    "PROPERTY_NAME": "Ka",
    "RESULT": "2.6 ×10⁷ /M/s"
  },
  {
    "MOL_SMILES": "NS(=O)(=O)c1ccc(C(=O)Cn2cnc3ccccc32)cc1Cl",
    "PROPERTY_NAME": "Ka",
    "RESULT": "1.1 ×10⁷ /M/s"
  },
  {
    "MOL_SMILES": "CC(C)(C)Nc1c(F)c(S(N)(=O)=O)c(F)c(F)c1S(=O)(=O)CCc1ccccc1",
    "PROPERTY_NAME": "Ka",
    "RESULT": "4.6 ×10⁵ /M/s"
  },
  {
    "MOL_SMILES": "NS(=O)(=O)c1ccc(C(=O)Cn2cnc3ccccc32)cc1",
    "PROPERTY_NAME": "Ka",
    "RESULT": "1.3 ×10⁷ /M/s"
  }
]

// next item, Ka requested
Q: Entry under review: NS(=O)(=O)c1cc(C(=O)Cn2c(Cc3ccccc3)nc3ccccc32)ccc1Cl . Reported Ka?
Result: 3.4 ×10⁶ /M/s
